Provenance of the data: paper PMC12207370

Kindly supply the reported Percentage of the pool, Seq I values for the records listed here.
assayed-system: biotinylated CD59 (Homo sapiens, UniProt P13987)
Construct: Recombinant soluble human CD59 with an additional C-terminal cysteine residue
Sequence (P13987 26-102 limits assumed): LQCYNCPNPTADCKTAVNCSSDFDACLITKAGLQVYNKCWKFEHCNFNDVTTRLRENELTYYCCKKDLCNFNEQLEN
test-details: mRNA-display cyclic peptide screen against CD59-biotin, NGS abundance after 6th selection round
particulars: counts normalised by total counts of NGS sample Seq I, sheet R6
Text: To discover novel non‐protein CD59 ligands, we screened a library of 10^12 cyclic peptides against CD59 using mRNA‐display (Figure 2a).^[ [23], [24], [25], [26], [27], [28], [29] ^] Briefly, an mRNA library was designed in which the start codon was reprogrammed from Met to N‐chloroacetyl‐D‐Tyr (ClAc‐D‐Tyr), followed by 10–12 randomly encoded natural amino acids, a Cys residue, a (GlySer)3 linker, and a stop codon. […]
Answers are plain numbers, in %.

The cases that follow already have their Percentage of the pool, Seq I on record.
record-sequence	assayed-system	Percentage of the pool, Seq I [%]
CFGGRTFIYAWS	biotinylated CD59 (Homo sapiens, UniProt P13987)	0.008
CFSSRTSLISGV	biotinylated CD59 (Homo sapiens, UniProt P13987)	0.006
FVRGDMYSVLG	biotinylated CD59 (Homo sapiens, UniProt P13987)	0.009
VARGDWNHQFY	biotinylated CD59 (Homo sapiens, UniProt P13987)	0.009
KWGSSFFTLYRV	biotinylated CD59 (Homo sapiens, UniProt P13987)	0.011
GYKNECHSFNW	biotinylated CD59 (Homo sapiens, UniProt P13987)	0.009

Hi team, please reply with Percentage of the pool, Seq I for each item in this list.
1. FVTGNSDHTRG
2. VYGSRYASIPFC
3. CKIDVYGRTWS
4. HQECWARGSRE
5. CFAGRLTIDAA
6. CFVGRLTLTST
7. CYGGRTFIYAWL
8. CFTLRVLDVSAV

Ans.
0.012
0.010
0.019
0.016
0.018
0.015
0.008
0.023

Hi team, please reply with Percentage of the pool, Seq I for each item in this list.
1. HCWVRGSRNHT
2. AISGGRDYTRG
3. HVFGNRSLTRG
4. ITRGSNIYAYG
5. CSSLRARGWI
6. STRRDRLGLTC
7. FIRGDSTSVLF
8. GYLNECHALYTR

Ans.
1. 0.012
2. 0.010
3. 0.021
4. 0.018
5. 0.017
6. 0.013
7. 0.012
8. 0.014

----------
Kindly supply the reported Percentage of the pool, Seq II values for the records listed here.
assayed-system: biotinylated CD59 (Homo sapiens)
Construct: Recombinant soluble human CD59 with an additional C-terminal cysteine residue
Sequence (P13987 26-102 limits assumed): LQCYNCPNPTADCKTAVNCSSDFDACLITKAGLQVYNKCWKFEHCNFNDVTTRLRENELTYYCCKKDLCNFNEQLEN
test-details: mRNA-display cyclic peptide screen against CD59-biotin, NGS abundance after 6th selection round
particulars: counts normalised by total counts of NGS sample Seq II, sheet R6
In your response, the unit should come after the numeric value.

Hi team, please reply with Percentage of the pool, Seq II for each item in this list.
1. SAWGNRKIQYY
2. CFRSRAVSNGT
3. SCSEWRRGTRS
4. WRDRFGQCVL
5. HVFGNRSSTRG
6. CFTLRVLDVSAV

Ans.
0.012%
0.019%
0.009%
0.016%
0.014%
0.012%

Hi team, please reply with Percentage of the pool, Seq II for each item in this list.
1. LWGTHSYVYYRP
2. CLRRSFLDNAGV
3. CFAGRLAIDAV
4. HVFGNRPFTRG

Ans.
["0.016%", "0.016%", "0.019%", "0.012%"]

Hi team, please reply with Percentage of the pool, Seq II for each item in this list.
1. RRDRFDQCVL
2. PWTWGNRSSVRG

Ans.
0.012%
0.023%

Hi team, please reply with Percentage of the pool, Seq II for each item in this list.
1. HAFGNRSFTRG
2. NYVERLCTSG
3. WTRGSKDYARG
4. FIRGNSTSVLY
5. ISGGRNWRAG
6. DCWVRGSRNYT
7. IARGDWNHQFF
8. HVFGNRSFARG

Ans.
1. 0.012%
2. 0.012%
3. 0.012%
4. 0.019%
5. 0.014%
6. 0.014%
7. 0.007%
8. 0.014%

Hi team, please reply with Percentage of the pool, Seq II for each item in this list.
1. CFLNRASFSGI
2. FIRGNSTSVLC
3. CFSARAIHGSL
4. STRRDRLGLTC
5. CFSRRVTYPHQV

Ans.
0.014%
0.012%
0.014%
0.021%
0.019%

Hi team, please reply with Percentage of the pool, Seq II for each item in this list.
1. SAWGNRQIQHY
2. AISGGRDYTRG
3. CFQNRMAYGDI

Ans.
1: 0.007%; 2: 0.014%; 3: 0.016%

Hi team, please reply with Percentage of the pool, Seq II for each item in this list.
1. CFGGRTFIYAWS
2. CIRGTPTTV
3. SAWGNRLIQYY
4. CFAARLSNGDT
5. CFSRRLAAGAI
6. VYGSRYASIPFC
7. YSSGSRHWTRS

Ans.
1. 0.012%
2. 0.007%
3. 0.012%
4. 0.016%
5. 0.012%
6. 0.021%
7. 0.016%

Hi team, please reply with Percentage of the pool, Seq II for each item in this list.
1. FVTGNRDNTRG
2. YVFGNRSFARG
3. GRLNECHVTWP
4. FVTGNRDHTHG
5. GYLNECHALYTR

Ans.
1. 0.014%
2. 0.016%
3. 0.021%
4. 0.012%
5. 0.021%

Hi team, please reply with Percentage of the pool, Seq II for each item in this list.
1. CFVSRTQIGSV
2. LWGTRSFTLVRS

Ans.
["0.00464%", "0.012%"]
